Entry source: patent US9056876B2

# experimental_target: mAChR M4 (UniProt P08173)
# Construct: hM1 and hM4 cDNAs were purchased from Missouri S&T cDNA Resource
# measurement_protocol: mAChR M4 cell-based functional assay (calcium mobilization, Fluo-4, FDSS)
# stated_conditions: positive allosteric modulator activity, EC20 acetylcholine response, CHO-K1 cells
Values of pEC50 greater than or equal to 6 map to 1 (yes); values below map to 0 (no).

// below: answered molecules
Cc1cc(C)c2c(n1)sc1c(NCC3CCCN3C(=O)OC(C)(C)C)nn(C)c12 (stereo not drawn) [Compound 85] : 0 (no)
Cc1cc(C)c2c(n1)sc1c(NCc3ccncc3)nn(C)c12 [Compound 42] : 1 (yes)
Cc1cc(C)c2c(n1)sc1c(NC(=O)c3ccccc3)n[nH]c12 [Compound 130] : 0 (no)
Cc1cc(C)c2c(n1)sc1c(NCc3scnc3C)nn(CCO)c12 [Compound 110] : 1 (yes)
Cc1cc(C)c2c(n1)sc1c(N)nn(C(=O)OC(C)(C)C)c12 [Compound 125] : 0 (no)
Cc1nc2sc3c(NCCC(C)C)nn(C)c3c2c(C)c1Cl [Compound 24] : 0 (no)
Cc1cc(C)c2c(n1)sc1c(NCc3csc(C)n3)nn(C)c12 [Compound 82] : 1 (yes)
COc1ccc(CNc2n[nH]c3c2sc2nc(C)ccc23)cc1 [Compound 72] : 0 (no)

Now consider the entry below.
Reported pEC50 at or above 6? Cc1cc(C)c2c(n1)sc1c(NCc3ccccc3)nn(C)c12 [Compound 33]
1 (yes)

###

# experimental_target: mAChR M4 (UniProt P08173)
# Construct: hM1 and hM4 cDNAs were purchased from Missouri S&T cDNA Resource
# measurement_protocol: mAChR M4 cell-based functional assay (calcium mobilization, Fluo-4, FDSS)
# stated_conditions: positive allosteric modulator activity: concentration-dependent increase in the EC20 acetylcholine response, CHO-K1 cells; >10 μM estimated for low potency (no plateau)
measurement_label: EC50 (µM)
One number for each entry, in µM.

The following compounds have reported results that may help.
Cc1ccnc2sc3c(NCC4CC4)nn(C)c3c12 [Compound 69] : 1.3
Cc1cc(C)c2c(n1)sc1c(NC(=O)C3CC3)n[nH]c12 [Compound 2] : 3.84
Cc1cc(C)c2c(n1)sc1c(NCC3CCCN3C(=O)OC(C)(C)C)nn(C)c12 (stereo not shown) [Compound 85] : 3.3
Cc1cc(C)c2c(n1)sc1c(NC3CN(C(=O)OC(C)(C)C)C3)nn(C)c12 [Compound 106] : 0.027
Cc1cc(C)c2c(n1)sc1c(NC3CCSC3)nn(CCO)c12 (stereo not shown) [Compound 109] : 0.2

Batch request: EC50 for each of the following compounds.
1. Cc1cc(C)c2c(n1)sc1c(NCc3cccnc3)nn(C)c12 [Compound 76]
2. Cc1nc2sc3c(NCc4ccco4)nn(C)c3c2c(C)c1Cl [Compound 25]
3. Cc1cc(C)c2c(n1)sc1c(NCc3sc(C)nc3C)nn(C)c12 [Compound 99]
4. CCC(=O)Nc1nn(C)c2c1sc1nc(C)cc(C)c12 [Compound 47]
5. Cc1nc2sc3c(N)nn(C)c3c2c(C)c1Cl [Compound 23]
6. Cc1cc(C)c2c(n1)sc1c(NCc3ccccc3F)n[nH]c12 [Compound 9]

[0.22, 0.22, 0.093, 2.9, 0.85, 1.05]
